// reported % Collagen Binding for each item listed
target: human collagen type I (acid soluble, extracted from placenta, Sigma C7774) (human) (UniProt P02452); assay: dried collagen assay
Sequence (P02452 162-1218 limits assumed, chain 1 of 2): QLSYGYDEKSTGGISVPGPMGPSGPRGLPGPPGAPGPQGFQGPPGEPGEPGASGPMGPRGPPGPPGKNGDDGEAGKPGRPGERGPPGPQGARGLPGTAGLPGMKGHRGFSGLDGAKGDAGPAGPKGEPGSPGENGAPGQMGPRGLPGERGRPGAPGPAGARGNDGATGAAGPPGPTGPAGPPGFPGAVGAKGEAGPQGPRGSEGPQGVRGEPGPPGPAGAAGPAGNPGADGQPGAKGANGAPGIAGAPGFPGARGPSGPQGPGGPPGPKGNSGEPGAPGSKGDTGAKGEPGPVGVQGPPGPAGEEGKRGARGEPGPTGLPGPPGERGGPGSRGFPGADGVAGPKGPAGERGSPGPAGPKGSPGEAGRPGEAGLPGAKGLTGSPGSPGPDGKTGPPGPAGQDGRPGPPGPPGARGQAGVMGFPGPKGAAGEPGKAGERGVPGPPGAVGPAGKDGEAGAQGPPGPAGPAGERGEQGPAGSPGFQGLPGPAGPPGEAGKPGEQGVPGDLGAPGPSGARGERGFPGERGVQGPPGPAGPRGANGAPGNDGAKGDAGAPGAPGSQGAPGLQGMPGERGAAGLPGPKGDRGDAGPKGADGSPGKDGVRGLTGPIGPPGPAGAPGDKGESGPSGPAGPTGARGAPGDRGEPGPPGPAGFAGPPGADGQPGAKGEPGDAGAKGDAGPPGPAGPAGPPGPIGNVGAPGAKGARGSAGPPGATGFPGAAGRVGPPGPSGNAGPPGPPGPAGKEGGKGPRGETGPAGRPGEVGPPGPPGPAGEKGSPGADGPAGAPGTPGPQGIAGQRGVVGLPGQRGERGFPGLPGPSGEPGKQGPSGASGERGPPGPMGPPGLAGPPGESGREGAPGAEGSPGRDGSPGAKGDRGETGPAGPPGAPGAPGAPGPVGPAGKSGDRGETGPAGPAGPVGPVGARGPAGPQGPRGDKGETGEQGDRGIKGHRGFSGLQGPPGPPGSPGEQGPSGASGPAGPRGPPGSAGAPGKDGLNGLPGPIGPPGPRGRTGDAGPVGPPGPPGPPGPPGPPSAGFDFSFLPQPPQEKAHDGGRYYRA
Sequence (P08123 80-1119 limits assumed, chain 2 of 2, further chain): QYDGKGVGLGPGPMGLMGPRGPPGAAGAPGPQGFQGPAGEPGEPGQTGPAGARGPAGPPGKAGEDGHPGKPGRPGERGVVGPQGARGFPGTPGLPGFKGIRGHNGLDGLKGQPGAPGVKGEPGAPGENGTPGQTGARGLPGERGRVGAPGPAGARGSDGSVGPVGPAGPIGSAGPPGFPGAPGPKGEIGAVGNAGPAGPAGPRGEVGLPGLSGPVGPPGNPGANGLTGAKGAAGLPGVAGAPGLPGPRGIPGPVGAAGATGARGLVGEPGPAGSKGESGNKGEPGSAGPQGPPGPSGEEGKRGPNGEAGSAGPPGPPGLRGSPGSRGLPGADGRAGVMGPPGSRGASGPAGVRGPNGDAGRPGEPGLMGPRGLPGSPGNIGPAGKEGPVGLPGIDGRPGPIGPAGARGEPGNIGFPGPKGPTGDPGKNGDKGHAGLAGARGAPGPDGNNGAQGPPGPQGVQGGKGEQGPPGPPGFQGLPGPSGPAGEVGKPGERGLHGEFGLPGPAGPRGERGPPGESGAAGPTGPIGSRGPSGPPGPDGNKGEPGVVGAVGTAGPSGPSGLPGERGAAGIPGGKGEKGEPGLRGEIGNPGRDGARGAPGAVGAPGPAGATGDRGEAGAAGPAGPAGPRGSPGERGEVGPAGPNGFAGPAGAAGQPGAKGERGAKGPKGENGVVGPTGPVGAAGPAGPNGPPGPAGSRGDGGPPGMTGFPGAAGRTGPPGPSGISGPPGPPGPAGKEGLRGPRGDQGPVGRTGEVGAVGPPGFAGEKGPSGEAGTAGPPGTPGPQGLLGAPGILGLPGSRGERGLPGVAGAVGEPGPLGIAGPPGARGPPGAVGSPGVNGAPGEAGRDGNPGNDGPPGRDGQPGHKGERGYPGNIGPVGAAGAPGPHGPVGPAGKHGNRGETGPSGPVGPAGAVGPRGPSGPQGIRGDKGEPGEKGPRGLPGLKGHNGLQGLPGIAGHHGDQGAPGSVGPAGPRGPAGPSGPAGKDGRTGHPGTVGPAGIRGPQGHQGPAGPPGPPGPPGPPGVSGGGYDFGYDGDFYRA
Bridge positions count the residues as written; N and C are the ends. Square brackets hold non-standard residues; d marks the D form. Ends that are not written are not given here.
Record the value in %, omitting the unit from your answer.

GQWTCSGDEY[dT]WHCNYE (disulfide 5-14 (inferred); not fully specified (C-terminus); printed as Q W T C S G D E Y t W H C N Y E) [SEQ ID NO: 172] = 9
GQWTCSGDEYT[dW]HCNYE (disulfide 5-14 (inferred); not fully specified (C-terminus); printed as Q W T C S G D E Y T w H C N Y E) [SEQ ID NO: 173] = 5

The measured % Collagen Binding associated with DWTCSADEYTWHCNYE [SEQ ID NO: 179] reads 81

The values you see were collected from patent US20080058636A1.
